# Lookup of reported cytotoxicity at 70.5 h keyed by entry
assay: Human HepG2 cell viability assay in 384 well format; assay type: toxicity, cell-based; design: dose 125 nL, time 70.5 hour; concentration not given beside the values; details: HepG2 cells, read-out: Inhibition
Your answer is read as %, so omit the unit and give the number.

Recorded cytotoxicity at 70.5 h, per entry:
Cn1cc(C(=O)NCc2cn3c(n2)CN(CC2CCOC2)CC3)cn1 (stereo unspecified) ... -110
CC1CC(NS(=O)(=O)c2ccc(C(F)(F)F)nc2)C1 (stereo unspecified) ... 26.5
CNS(=O)(=O)Cc1ccc(CNc2cncc(-n3cccn3)n2)cc1 ... -18.1
COc1cccc(OC2CN(C(=O)c3c(C)noc3C)C2)c1 ... -9.88
O=C(C1CCC1)N1CCN(Cc2ccsc2)[C@H]2CS(=O)(=O)C[C@H]21 ... -0.678

Consider the additional compound presented here.
INPUT: Bench note: what cytotoxicity at 70.5 h did c1ccc(-c2nc(CNC3CCc4ncnn4C3)co2)cc1 (stereo unspecified) show?
OUTPUT: 1.4

###

test: Human HepG2 cell viability assay in 384 well format; assay type: toxicity, cell-based; parameters: dose 125 nL, time 70.5 hour; concentration not given beside the values; conditions: HepG2 cells, read-out: Inhibition
QUANTITY: cytotoxicity at 70.5 h (%)
Your answer is read as %, so omit the unit and give the number.

Recorded cytotoxicity at 70.5 h, per entry:
O=C1CCCN1CCc1noc(-c2ccc3[nH]cnc3c2)n1 ... -8.29
Cc1nnc(N2CCNCC2)c(C(N)=O)c1C ... -16.9
O=C(O)[C@@H]1CN(C(=O)CSCC2CC2)C[C@H]1c1ccncc1 ... 1.26

INPUT: Bench note: what cytotoxicity at 70.5 h did Cc1c(Br)cnn1C(C)C(=O)Nc1nncs1 (stereo unspecified) show?
OUTPUT: -14.2

INPUT: Bench note: what cytotoxicity at 70.5 h did Cc1noc2nc(C3CCCN(Cc4cccnc4)C3)cc(C(F)F)c12 (stereo unspecified) show?
OUTPUT: -3.71

INPUT: Bench note: what cytotoxicity at 70.5 h did CCC1(C)Cc2ccccc2-c2nc(NCCO)nc(O)c21 (stereo unspecified) show?
OUTPUT: -26.4

###

assay: Human HepG2 cell viability assay in 384 well format; assay type: toxicity, cell-based; set-up: dose 125 nL, time 70.5 hour; concentration not given beside the values; details: HepG2 cells, read-out: Inhibition
QUANTITY: cytotoxicity at 70.5 h

Recorded cytotoxicity at 70.5 h, per entry:
CC(C)CCc1n[nH]c(C(=O)O)c1Cl ... 16.9%
CN(Cc1ccc(O)cc1)C(=O)NCc1nnc2n1CCCCC2 ... -2.24%
COc1ccncc1NCc1cscn1 ... -0.709%

INPUT: Bench note: what cytotoxicity at 70.5 h did CC(=O)N1CCN(C(=O)c2snnc2C)[C@H]2CS(=O)(=O)C[C@H]21 show?
OUTPUT: -6.51%

INPUT: Bench note: what cytotoxicity at 70.5 h did CCC[C@@H]1CN(c2cncc(C(=O)N3CCOCC3)n2)C[C@H]1N(C)C show?
OUTPUT: 32.6%

INPUT: Bench note: what cytotoxicity at 70.5 h did Oc1nc(N2CCOCC2)nc2c1CCN(Cc1cccnc1)CC2 show?
OUTPUT: -1.7%

INPUT: Bench note: what cytotoxicity at 70.5 h did Cc1cc(C(=O)N[C@H]2CC[C@@]3(CCC(=O)N3)CC2)no1 show?
OUTPUT: -6.09%

INPUT: Bench note: what cytotoxicity at 70.5 h did Cc1cc(C)n(CC2CN(Cc3cc(C)on3)CCO2)n1 (centres undefined) show?
OUTPUT: -3.83%

INPUT: Bench note: what cytotoxicity at 70.5 h did Clc1ccc(OCCNCCn2cccn2)cc1 show?
OUTPUT: 22.1%

###

test: Human HepG2 cell viability assay in 384 well format; type: toxicity, cell-based; design: dose 125 nL, time 70.5 hour; concentration not given beside the values; settings: HepG2 cells, read-out: Inhibition
QUANTITY: cytotoxicity at 70.5 h
Hi, when you answer, please include the unit after the number. Thanks!

Recorded cytotoxicity at 70.5 h, per entry:
O=C(c1cscn1)N1CC[C@@H]2[C@@H]1CCN2c1ccccn1 ... -2.32%
CCc1[nH]ncc1C(=O)N1CCCC(n2cncn2)C1 (stereo unspecified) ... 1.79%
CS(=O)(=O)CCNC(=O)Nc1sc2ccccc2c1Cl ... -11.7%
CC(C)c1nnc2n1CCN(Cc1ncc(-c3ccccc3)o1)C2 ... -10.5%
CCCc1noc(CS(=O)(=O)c2cccc(OC)c2)n1 ... -5.69%
O=C(CN1CCOC(CNc2cccnn2)C1)NCc1ccccn1 (stereo unspecified) ... 19%

INPUT: Bench note: what cytotoxicity at 70.5 h did O=C(NCC(F)F)c1ccc(S(=O)(=O)N2CCCC(O)C2)cc1 (stereo unspecified) show?
OUTPUT: 18.2%

INPUT: Bench note: what cytotoxicity at 70.5 h did Cc1nc(O)cc(CN2C[C@H](NC(=O)C3CCCC3)[C@@H](C3CC3)C2)n1 show?
OUTPUT: -9.17%

###

# Lookup of reported cytotoxicity at 70.5 h keyed by entry
experiment: Human HepG2 cell viability assay in 384 well format; type: toxicity, cell-based; parameters: dose 125 nL, time 70.5 hour; concentration not given beside the values; settings: HepG2 cells, read-out: Inhibition
Your answer is read as %, so omit the unit and give the number.

INPUT: Bench note: what cytotoxicity at 70.5 h did CCOc1ccc(CNC(=O)N(C)Cc2ncnn2C)cc1C show?
OUTPUT: 1.14

INPUT: Bench note: what cytotoxicity at 70.5 h did Cc1nc2[nH]cc(C(=O)N3CCCCC3c3ccc(F)cc3)c(=O)n2n1 (centres undefined) show?
OUTPUT: 3.11

INPUT: Bench note: what cytotoxicity at 70.5 h did Cc1cc(C(=O)NC(C)Cc2cccc(Cl)c2)n(C)n1 (centres undefined) show?
OUTPUT: -2.61

INPUT: Bench note: what cytotoxicity at 70.5 h did CCCS(=O)(=O)c1ccc(N2CCC(Cc3ccccc3)CC2)nn1 show?
OUTPUT: -2.73

INPUT: Bench note: what cytotoxicity at 70.5 h did COCC(=O)N(C)Cc1ccc(OCc2cccs2)cc1 show?
OUTPUT: -6.51

###

assay: Human HepG2 cell viability assay in 384 well format; format: toxicity, cell-based; design: dose 125 nL, time 70.5 hour; concentration not given beside the values; conditions: HepG2 cells, read-out: Inhibition
# Lookup of reported cytotoxicity at 70.5 h keyed by entry
Your answer is read as %, so omit the unit and give the number.

Recorded cytotoxicity at 70.5 h, per entry:
O=C(NCCc1ccncc1)[C@@H]1CC[C@@H]2[C@@H](CCN2Cc2ccco2)O1 ... -9.71
CC(=O)N1CCC(Cc2ccc(-c3ccnn3C)nc2)CC1 ... -7.13
CC(C)C(CNC(=O)CCn1cncn1)N1CCc2ccccc2C1 (stereo unspecified) ... -6.95
Cc1cc(-c2cc(N)c(=O)n(CC(=O)N3CCCC(C)C3)n2)c(C)o1 (stereo unspecified) ... -9.35
CCc1nnc(CN(CC)C(=O)C2CC(=O)N(CC)C2)o1 (stereo unspecified) ... -1.3

INPUT: Bench note: what cytotoxicity at 70.5 h did COc1ccc(F)cc1C(C(=O)O)N1CCSCC1 (stereo unspecified) show?
OUTPUT: -7.69

INPUT: Bench note: what cytotoxicity at 70.5 h did CC(=O)Nc1ccc(C(=O)N(C)C(C)Cc2cc(C)ccn2)cn1 (stereo unspecified) show?
OUTPUT: 1.81

INPUT: Bench note: what cytotoxicity at 70.5 h did CC(=O)N1[C@H](Cn2cncn2)C[C@@H]2CN(Cc3ccccn3)CC[C@@H]21 show?
OUTPUT: 17.3

INPUT: Bench note: what cytotoxicity at 70.5 h did COc1ccc(CN2C[C@@H]3OCCN(CCN(C)C)[C@@H]3C2)cc1 show?
OUTPUT: -3.2

INPUT: Bench note: what cytotoxicity at 70.5 h did COCCN(Cc1ccccc1)Cc1nc(-c2ccsc2)no1 show?
OUTPUT: -3.79

INPUT: Bench note: what cytotoxicity at 70.5 h did COCC(=O)N1CCC2(CC1)CC(CC(=O)NC1CC1)c1ccccc12 (stereo unspecified) show?
OUTPUT: -18.5

###

experiment: Human HepG2 cell viability assay in 384 well format; assay type: toxicity, cell-based; parameters: dose 125 nL, time 70.5 hour; concentration not given beside the values; conditions: HepG2 cells, read-out: Inhibition
QUANTITY: cytotoxicity at 70.5 h (%)
Your answer is read as %, so omit the unit and give the number.

Cc1cc(C)n(CCN(C)Cc2c[nH]nc2-c2ccc3c(c2)OCO3)n1 ... -5.98

INPUT: Bench note: what cytotoxicity at 70.5 h did COc1cc(OC)cc(C2SCC(=O)Nc3ccsc32)c1 (stereo unspecified) show?
OUTPUT: -4.19

INPUT: Bench note: what cytotoxicity at 70.5 h did CCOC(=O)c1ccc(N2CCN(Cc3c(C)nn(C)c3Cl)CC2)nc1 show?
OUTPUT: 12.7

INPUT: Bench note: what cytotoxicity at 70.5 h did Cc1cnn(CC2CN(CC(=O)Nc3ccncc3)CCO2)c1 (stereo unspecified) show?
OUTPUT: -5.95

INPUT: Bench note: what cytotoxicity at 70.5 h did CCn1ncc(NC(=O)c2cc(C3CC3)nc3c2c(C)nn3C)c1C show?
OUTPUT: 35.5

INPUT: Bench note: what cytotoxicity at 70.5 h did Cc1cc(C)n(CCC(=O)OCC(=O)N2CCc3sccc3C2)n1 show?
OUTPUT: -4.48
